Molecular target: human CB2 receptors (Homo sapiens (Human), UniProt P34972)
Sequence (P34972 whole entry): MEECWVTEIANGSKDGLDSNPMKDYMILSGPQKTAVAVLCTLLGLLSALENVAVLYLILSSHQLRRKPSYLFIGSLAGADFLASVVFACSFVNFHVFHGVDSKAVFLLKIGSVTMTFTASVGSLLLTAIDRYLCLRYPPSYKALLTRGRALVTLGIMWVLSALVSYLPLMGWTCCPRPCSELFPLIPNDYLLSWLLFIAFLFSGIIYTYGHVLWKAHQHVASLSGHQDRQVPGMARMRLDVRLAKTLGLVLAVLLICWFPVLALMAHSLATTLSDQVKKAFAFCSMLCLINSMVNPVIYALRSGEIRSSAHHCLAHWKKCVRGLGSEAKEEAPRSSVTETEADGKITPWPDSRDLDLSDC
Assay: cAMP assay, CHO cells expressing human CB2 receptors
Assay type: cell-based
Conditions: functional cAMP assay, CHO cells expressing human CB2; read-out: human CB2 EC50
Property Label: EC50
Write the numeric value and follow it with the unit.

Consider the worked cases shown below.
Look at this compound and give its reported EC50. NC(=O)CC1(NC(=O)c2ccc(C3CC3)c(Cc3ccc(F)cc3)n2)CN(C(=O)OCc2ccccc2)C1 [Example 74]
39 nM

Consider the compound shown here: O=C(O)CC1(NC(=O)c2ccc(N3CC(F)(F)C3)c(OCC3CC3)n2)CCOCC1 [Example 57] What is its recorded EC50?
3 nM

Given NC(=O)CC1(NC(=O)c2ccc(C3CC3)c(OCC3CC3)n2)CCNCC1 [Example 86] , state its recorded EC50.
240 nM

Fill blank: measured EC50 of the compound CC(=O)N1CCC(CC(N)=O)(NC(=O)c2ccc(C3CC3)c(Cc3ccc(F)cc3)n2)CC1 [Example 72] is ____.
5 nM

Which value of EC50 has been reported for NC(=O)[C@@H]1CCCC[C@@H]1NC(=O)c1ccc(N2CC(F)(F)C2)c(OCC2CC2)n1 (stereo in doubt) [Example 20] in the records?
15.8 nM

Which value of EC50 has been reported for CC(C)[S+]([O-])c1nc(C(=O)NC2(CC(N)=O)COC2)ccc1Br (stereo not shown) [Example 44] in the records?
413 nM

I need EC50 for every entry listed below, if you could help.
1. CCCCC(CC(N)=O)NC(=O)c1ccc(C2CC2)c(OCC2CC2)n1 (single isomer, unassigned; (-)) [Example 9]
2. NC(=O)CC1(NC(=O)c2ccc(C3CC3)c(OCC3CC3)n2)CCOC1 (stereo not shown) [Example 88]

2.1 nM
2 nM

Dear colleague, could you send me EC50 for each of the items below? Thanks.
1. CC(C)[C@H](CC(N)=O)NC(=O)c1ccc(N2CC(F)(F)C2)c(OCC2CC2)n1 [Example 19]
2. NC(=O)CC(NC(=O)c1ccc(C2CC2)c(OCC2CC2)n1)C1CCCCC1 (single isomer, unassigned; (-)) [Example 17]

["3.2 nM", "6.2 nM"]
